Numbers sourced from patent US5859067A.

biological target: human erythrocyte plasma membrane Ca^2+ -ATPase (Homo sapiens); construct: Calmodulin-depleted erythrocyte membranes were prepared by continuous filtration through a hollow fibre; tissue New South Wales Red Cross Transfusion Service, Sydney; host or cells: human packed red blood cells (calmodulin-depleted erythrocyte membranes); assay: Ca^2+ -ATPase assay (microplate method), absence (-CaM) and presence (+CaM) of calmodulin (Table 1A); assay type: biochemical; settings: absence of calmodulin; read-out: IC50 (-CaM)
Field: IC50. Provide a value for each of the compounds that follow.
Express it in µM; write the number only.

Look at this compound and give its reported IC50. Cc1cc(CCCCCCCCCCc2ccc(O)c(C)c2)ccc1O [1,10-bis(4-hydroxy-3-methylphenyl)decane] 100

// lookup IC50 for C=C(C)C(CC=C(C)C)Cc1c(OC)cc(O)c2c1OC(c1c(O)cccc1O)CC2=O (stereo not shown) 45.3

Which IC50 reading was recorded for the compound Cc1ccc(O)c(CCCCCCCCCCc2cc(C)ccc2O)c1 [1,10-bis(2-hydroxy-5-methylphenyl)decane] ? 22

// IC50 lookup, key: Oc1ccc(CCCCCCCCc2ccc(O)cc2O)c(O)c1 [1,8-bis(2,4-dihydroxyphenyl)octane] 50

----------
molecular target: human erythrocyte plasma membrane Ca^2+ -ATPase (Homo sapiens, UniProt P23634); construct: Calmodulin-depleted erythrocyte membranes were prepared by continuous filtration through a hollow fibre; tissue New South Wales Red Cross Transfusion Service, Sydney; host or cells: human packed red blood cells (calmodulin-depleted erythrocyte membranes); experiment: Ca^2+ -ATPase assay (microplate method), absence (-CaM) and presence (+CaM) of calmodulin (Table 1A); type: biochemical; details: IC50 (-CaM), absence of calmodulin
Sequence (P23634 1-1205 isoform P23634-6): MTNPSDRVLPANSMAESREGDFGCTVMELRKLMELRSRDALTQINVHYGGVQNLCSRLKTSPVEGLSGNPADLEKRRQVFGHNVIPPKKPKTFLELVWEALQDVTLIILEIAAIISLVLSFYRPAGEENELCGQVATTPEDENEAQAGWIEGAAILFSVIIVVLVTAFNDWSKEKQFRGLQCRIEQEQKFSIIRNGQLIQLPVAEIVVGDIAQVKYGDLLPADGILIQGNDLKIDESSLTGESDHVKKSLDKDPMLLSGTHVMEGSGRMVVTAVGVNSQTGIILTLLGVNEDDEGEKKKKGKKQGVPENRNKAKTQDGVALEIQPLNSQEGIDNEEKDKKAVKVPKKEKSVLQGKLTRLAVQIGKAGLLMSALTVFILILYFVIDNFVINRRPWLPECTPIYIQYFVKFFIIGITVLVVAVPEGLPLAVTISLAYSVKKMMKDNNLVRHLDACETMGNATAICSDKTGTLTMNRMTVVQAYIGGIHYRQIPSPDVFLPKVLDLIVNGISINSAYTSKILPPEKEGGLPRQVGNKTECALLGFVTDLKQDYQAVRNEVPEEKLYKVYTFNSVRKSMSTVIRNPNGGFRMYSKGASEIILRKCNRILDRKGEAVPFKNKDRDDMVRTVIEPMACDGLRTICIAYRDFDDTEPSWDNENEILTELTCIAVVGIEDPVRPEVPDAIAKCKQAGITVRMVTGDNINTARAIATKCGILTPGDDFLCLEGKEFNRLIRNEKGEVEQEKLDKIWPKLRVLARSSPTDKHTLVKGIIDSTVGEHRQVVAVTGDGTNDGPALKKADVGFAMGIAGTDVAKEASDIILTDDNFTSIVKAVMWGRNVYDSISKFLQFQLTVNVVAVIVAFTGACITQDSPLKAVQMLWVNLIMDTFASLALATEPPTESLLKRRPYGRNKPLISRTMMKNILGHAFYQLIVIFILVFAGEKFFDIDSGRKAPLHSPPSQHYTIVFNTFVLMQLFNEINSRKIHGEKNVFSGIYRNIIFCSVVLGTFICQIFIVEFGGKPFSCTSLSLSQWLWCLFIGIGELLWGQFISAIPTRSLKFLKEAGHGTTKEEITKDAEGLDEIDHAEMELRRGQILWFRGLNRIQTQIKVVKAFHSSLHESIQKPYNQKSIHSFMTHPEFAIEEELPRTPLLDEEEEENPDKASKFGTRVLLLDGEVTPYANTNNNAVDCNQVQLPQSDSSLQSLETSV
Sequence (P35613 140-385 partner limits assumed): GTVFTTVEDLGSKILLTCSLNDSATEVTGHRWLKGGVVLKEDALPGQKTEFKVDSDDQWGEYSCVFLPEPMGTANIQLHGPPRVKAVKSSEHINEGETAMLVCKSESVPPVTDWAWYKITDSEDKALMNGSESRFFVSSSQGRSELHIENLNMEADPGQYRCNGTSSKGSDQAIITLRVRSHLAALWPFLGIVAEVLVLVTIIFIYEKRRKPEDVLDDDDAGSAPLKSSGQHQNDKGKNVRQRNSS
Give IC50 for every item shown.
Please reply with the bare figure in µM and do not write the unit itself.

Reported IC50, compound `CCCCCCCCCc1ccccc1O` : ____ 36

I have this compound here, `CCCCCCCCCc1ccc(C)cc1O` , and I need its recorded IC50. 52

# IC50 lookup, item `CCCCCCCCCc1cc(Br)ccc1O` 52

For `CCCCCCCCCc1cc([N+](=O)[O-])ccc1O` , what is its reported IC50? 80

I have this compound here, `CCCCCCCCCc1cc(C)ccc1O` , and I need its recorded IC50. 80

----------
biological target: human erythrocyte plasma membrane Ca^2+ -ATPase (Homo sapiens, UniProt P23634); construct: Calmodulin-depleted erythrocyte membranes were prepared by continuous filtration through a hollow fibre; tissue New South Wales Red Cross Transfusion Service, Sydney; host or cells: human packed red blood cells (calmodulin-depleted erythrocyte membranes); test: Ca^2+ -ATPase assay (microplate method), absence (-CaM) and presence (+CaM) of calmodulin (Table 1A); type: biochemical; settings: absence of calmodulin; read-out: IC50 (-CaM)
Value Kind: IC50 (µM)
Write down the numeric answer in µM and omit the unit.

Missing value: IC50, human erythrocyte plasma membrane Ca^2+ -ATPase (Homo sapiens, UniProt P23634), entry Cc1ccc(CCCCCCCCCCc2ccc(C)c(O)c2)cc1O [1,10-bis(3-hydroxy-4-methylphenyl)decane] . Fill in? 51

Give the reported IC50 for Oc1ccc2ccccc2c1CCCCCCCCCCc1c(O)ccc2ccccc12 [1,10-bis(2-hydroxy-1-naphthyl)decane] (system: human erythrocyte plasma membrane Ca^2+ -ATPase (Homo sapiens, UniProt P23634)). 92

Lab note: need IC50 for C=C(C)C(CC=C(C)C)Cc1c(O)cc(O)c2c1OC(c1ccccc1O)CC2=O (stereo not shown) [5,7,6'-trihydroxy-8-lavandulylflavanone] on human erythrocyte plasma membrane Ca^2+ -ATPase (Homo sapiens, UniProt P23634), anyone have it? 26.5

Tell me reported IC50 for CCCCCCCCCC(c1ccccc1O)c1ccccc1O [1,1-bis(2-hydroxyphenyl)decane] , tested with human erythrocyte plasma membrane Ca^2+ -ATPase (Homo sapiens, UniProt P23634). 74

----------
biological target: human erythrocyte plasma membrane Ca^2+ -ATPase (Homo sapiens, UniProt P23634); construct: Calmodulin-depleted erythrocyte membranes were prepared by continuous filtration through a hollow fibre; tissue New South Wales Red Cross Transfusion Service, Sydney; host or cells: human packed red blood cells (calmodulin-depleted erythrocyte membranes); experiment: Ca^2+ -ATPase assay (erythrocyte membranes; Table 1); type: biochemical
Value Kind: Ca^2+ -ATPase inhibitory activity (in words)

Molecule	Target Or Test System	Endpoint Value
CCCCCCCCCCCCCc1cc(O)cc(O)c1 [grevillol, 5-tridecylresorcinol]	human erythrocyte plasma membrane Ca^2+ -ATPase (Homo sapiens, UniProt P23634)	weak

----------
Can you tell me pIC50 for the items I'm about to list?
Target: human erythrocyte plasma membrane Ca^2+ -ATPase (Homo sapiens, UniProt P23634)
Construct: Calmodulin-depleted erythrocyte membranes were prepared by continuous filtration through a hollow fibre; tissue New South Wales Red Cross Transfusion Service, Sydney; host or cells: human packed red blood cells (calmodulin-depleted erythrocyte membranes)
Experiment: Ca^2+ -ATPase assay (erythrocyte membranes; Table 1)
Type: biochemical
Conditions: read-out: INHIBITION OF Ca^2+ -ATPase IC50
Method: Natural and synthetic compounds of formula (I) were tested for their ability to influence human erythrocyte plasma membrane Ca^2+ -ATPase. Packed cells were obtained from the New South Wales Red Cross Transfusion Service, Sydney. The whole preparation was carried out at 4° C. 1 unit of packed red cells was washed 3 times with isotonic buffer, containing 130 mM KCl, 20 mM Tris-HCl (pH 7.4), and the cells were collected by centrifugation at 4,000 RPM. […]
Give only the number. pIC50 is defined as minus log10 of concentration in molar units.

Consider the compound shown here: `Cc1c(O)cc(CCCCCCCCCCCCCCc2cc(O)c(C)c(O)c2)cc1O` What is its recorded pIC50? 4.80

So what's the measured pIC50 for this one? Oc1ccccc1CCCCCCCCCCCCCCc1ccccc1O [1,14-bis(2-hydroxyphenyl)tetradecane] 4.55

Find the recorded pIC50 belonging to Oc1ccccc1CCCCCCCCCCCCc1ccccc1O [1,12-bis(2-hydroxyphenyl)dodecane] and report it. 5.08

Would you kindly share the measured pIC50 for CCCCCCCCCCc1cc(O)cc(O)c1C(=O)OCC [ethyl 2,4-dihydroxy-6-decylbenzoate] ? 4.07

Item `CC(C)=CCC/C(C)=C/CC/C(C)=C/Cc1c(C)cc(O)cc1O` has what recorded pIC50? 4.63

Quick one: pIC50 of CCCCCCCCCc1cc(O)cc(O)c1C(=O)OCC [ethyl 2,4-dihydroxy-6-nonylbenzoate] ? 4.21

----------
target: human erythrocyte plasma membrane Ca^2+ -ATPase (Homo sapiens, UniProt P23634); construct: Calmodulin-depleted erythrocyte membranes were prepared by continuous filtration through a hollow fibre; tissue New South Wales Red Cross Transfusion Service, Sydney; host or cells: human packed red blood cells (calmodulin-depleted erythrocyte membranes); test: Ca^2+ -ATPase assay (erythrocyte membranes; Table 1); assay type: biochemical; details: at 100 μM; read-out: INHIBITION OF Ca^2+ -ATPase PERCENT (%)
Value Kind: inhibition at 100 µM (%)
Field format: number, assumed %, no unit text.

Tell me the measured inhibition at 100 µM of CC(C)(C)c1cc(C(C)(C)C)c(O)c(C(C)(C)C)c1 [2,4,6-tri-tert-butylphenol, reference compound] , please. 79

What value of measured inhibition at 100 µM is listed for Oc1ccc(CCCCCCCCCCCCCCc2ccc(O)cc2)cc1 [1,14-bis(4-hydroxyphenyl)tetradecane] ? 5

So what does the record say about inhibition at 100 µM for CCCCCCCCCCc1cc(O)cc(O)c1C(=O)OCC [ethyl 2,4-dihydroxy-6-decylbenzoate] ? 60

Please give the measured inhibition at 100 µM for this compound: `CC(C)=CCC/C(C)=C/CC/C(C)=C/Cc1c(C)cc(O)cc1O` 100

For the compound Oc1ccccc1CCCCCCCCCCCCCCc1ccccc1O [1,14-bis(2-hydroxyphenyl)tetradecane] , what inhibition at 100 µM is on record? 84

Any idea what its inhibition at 100 µM is? The compound is `Oc1ccc(C2CCCCC2)cc1` 16

// inhibition at 100 µM lookup, key: `Oc1cc(O)cc(CCCCC/C=C\CCCCCCCc2cc(O)cc(O)c2)c1` 90

Which measured inhibition at 100 µM value corresponds to `CCCCCCCCCc1cc(O)cc(O)c1` ? 44

----------
molecular target: human erythrocyte plasma membrane Ca^2+ -ATPase (Homo sapiens); construct: Calmodulin-depleted erythrocyte membranes were prepared by continuous filtration through a hollow fibre; tissue New South Wales Red Cross Transfusion Service, Sydney; host or cells: human packed red blood cells (calmodulin-depleted erythrocyte membranes); assay: Ca^2+ -ATPase assay (erythrocyte membranes; Table 1); assay type: biochemical; conditions: read-out: INHIBITION OF Ca^2+ -ATPase IC50
I'd be grateful if you could share measured IC50 for these entries.
Give just the numeric value; µM need not be written.

Which IC50 is listed for `CCCCCCCCCCc1ccccc1O` ? 42

Bench note: what IC50 did `Oc1ccc(CCCCCCCCCCc2ccccc2O)cc1` show? 12

Would you kindly share the measured IC50 for `CCCCCCCCCCc1cc(O)cc(O)c1` ? 135

Looking for the measured IC50 of `Oc1ccc(CCCCCCCCCCCCCCc2ccccc2O)cc1` , can you help? 81

Query: IC50; subject: CC(C)(C)c1cc(O)c(O)c(C(C)(C)C)c1 [3,5-di-tert-butyl-catechol, reference compound] 84

Consider the compound `CC(C)=CCC/C(C)=C/CC/C(C)=C/Cc1c(O)cc(C)cc1O` and give its measured IC50. 22.5

What value of IC50 has been reported for the following compound? Oc1ccc(CCCCCCCCCCc2ccc(O)cc2)cc1 [1,10-bis(4-hydroxyphenyl)decane] 93

# get_value(readout='IC50', item= Oc1ccc(CCCCCCCCCCCCCCc2ccc(O)cc2)cc1 [1,14-bis(4-hydroxyphenyl)tetradecane] ) 280

Entry under review: CCCCCCCCCCCCc1ccc(O)cc1O [4-dodecylresorcinol, reference compound] . Reported IC50? 69

Need IC50, item `Oc1ccc(CCCCCCCCCCCCc2ccccc2O)cc1` 18.8

Recorded IC50 of `CCCCCCCCCc1cc(O)cc(O)c1` , please. 108

Tell me the measured IC50 of Cc1cc(C(C)(C)C)c(O)c(C(C)(C)C)c1 [BHT, 2,6-di-tert-butyl-4-methylphenol, reference compound] , please. 66

Entry CCCCCCc1ccc(O)cc1O [4-hexylresorcinol, reference compound] : reported IC50 = ? 259

Consider the compound shown here: `Cc1c(O)cc(CCCCCCCCCCCCCCc2cc(O)cc(O)c2)cc1O` What is its recorded IC50? 17

What measured IC50 goes with Oc1ccccc1CCCCCCCCCCc1ccccc1O [1,10-bis(2-hydroxyphenyl)decane] ? 7.6
